Values from the supplement of paper PMC10567573

B1: APBB1IP (parent)
chain: PPEPLSQVSMWDQRWQDHQPLLPI

# Variants of: B1
# Run Description: protein stability index of a GFP-peptide fusion (GPS, HEK-293T) (PSI 1-6); higher = more stable;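 further: lentivirally expressed fusions sorted by FACS into six bins by GFP to DsRed ratio, PSI derived from sequencing read proportions per bin multiplied by bin number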
# Assay Context: c terminus: a fixed tail appended
Kindly supply the reported protein stability index values for the records listed here.
Simply state the number, no unit and no words.

# variant PPEPLSQVSMYDQRWQDHQPLLPI [W11Y] ; its protein stability index = 3.51

# variant PPEPLSQVSMWDQRNQDHQPLLPI [W15N] ; its protein stability index = 3.7

# variant PPEPISQVSMWDQRWQDHQPLLPI [L5I] ; its protein stability index = 2.72

# variant PPEPLSQVSMWDQRWRDHQPLLPI [Q16R] ; its protein stability index = 2.68

# variant PPEPLSQVSMWDQRWQDHQPLLPR [I24R] ; its protein stability index = 3.12

# variant PPEPLSQVSMEDQRWQDHQPLLPI [W11E] ; its protein stability index = 4.18

# variant PPEPLSQVSMIDQRWQDHQPLLPI [W11I] ; its protein stability index = 3.1

# variant PPEPLSQVSMWDQRWQDEQPLLPI [H18E] ; its protein stability index = 4.14

# variant PHEPLSQVSMWDQRWQDHQPLLPI [P2H] ; its protein stability index = 2.65

# variant PPEPLSQVSVWDQRWQDHQPLLPI [M10V] ; its protein stability index = 3.36

# variant PPEPLSQVSMWDQRHQDHQPLLPI [W15H] ; its protein stability index = 4.17

# variant PPEPLSQVCMWDQRWQDHQPLLPI [S9C] ; its protein stability index = 2.34

# variant PPEPLSQVSMWDQRWQDHQPLLHI [P23H] ; its protein stability index = 2.05

# variant PPEPLSQVSMWDQTWQDHQPLLPI [R14T] ; its protein stability index = 3.39

# variant PPEPLSQVSMWDQRWCDHQPLLPI [Q16C] ; its protein stability index = 2.6

# variant PTEPLSQVSMWDQRWQDHQPLLPI [P2T] ; its protein stability index = 2.69

# variant PPEPLSQVSMWDQRWQHHQPLLPI [D17H] ; its protein stability index = 2.44

# variant PWEPLSQVSMWDQRWQDHQPLLPI [P2W] ; its protein stability index = 2.07

# variant PPEPRSQVSMWDQRWQDHQPLLPI [L5R] ; its protein stability index = 3.62

# variant PPEVLSQVSMWDQRWQDHQPLLPI [P4V] ; its protein stability index = 2.61

# variant PNEPLSQVSMWDQRWQDHQPLLPI [P2N] ; its protein stability index = 3.09

# variant PPEPLSQVSMWDQDWQDHQPLLPI [R14D] ; its protein stability index = 3.59
